# Assay type: in vivo, male Crl:CD-1 mice
# Study conditions: male, Crl:CD-1, mouse, serum, iv, 50 mg/kg
Assay metric: clearance (mL/min)
Provide the reading as a plain figure in mL/min.

Item: C[C@@H](O)CCCCn1c(=O)c2c(ncn2C)n(C)c1=O | clearance: 1.44

----------
# Format: in vivo, male Crl:CD-1 mice
# Study conditions: male, Crl:CD-1, mouse, lungs/serum, iv, 50 mg/kg
Assay metric: Kp
# print the numeric value only

Item: C[C@@H](O)CCCCn1c(=O)c2c(ncn2C)n(C)c1=O [LSF] | Kp: 0.758

----------
# Type: in vivo, male Crl:CD-1 mice
# Study conditions: male, Crl:CD-1, mouse, intravenous, 50 mg/kg
Assay metric: clearance (mL/min)
Provide the reading as a plain figure in mL/min.

Item: C[C@@H](O)CCCCn1c(=O)c2c(ncn2C)n(C)c1=O | clearance: 5.43

----------
# Assay type: in vivo, male Crl:CD-1 mice
# Study conditions: male, Crl:CD-1, mouse, muscle/serum, iv, 50 mg/kg
Assay metric: Kp
# print the numeric value only

Item: C[C@@H](O)CCCCn1c(=O)c2c(ncn2C)n(C)c1=O [LSF] | Kp: 0.64
